Data origin: patent US6821980B1

Target: purified DHFR of strain Sp1/1 of Streptococcus pneumoniae (Streptococcus pneumoniae serotype 4, UniProt Q54801)
Sequence (Q54801 whole entry I100L, form open): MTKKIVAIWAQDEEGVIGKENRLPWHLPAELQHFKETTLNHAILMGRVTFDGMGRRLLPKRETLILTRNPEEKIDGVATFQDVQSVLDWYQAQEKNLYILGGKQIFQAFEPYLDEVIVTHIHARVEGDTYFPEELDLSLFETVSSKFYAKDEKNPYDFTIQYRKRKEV
Format: biochemical
Details: Table 2; IC50 against purified DHFR of strain Sp1/1
Measured parameter: log10(IC50) (log10 of the value in nM)

[[record]]
molecule = "CCOc1cc(Cc2cnc(N)nc2N)cc(OS(=O)(=O)C(C)CC)c1-c1ccc(OCCO)cc1 (centres unmarked) [Example 61-b]"
measurement = 1.04

[[record]]
molecule = "CCOc1cc(Cc2cnc(N)nc2N)cc(OS(=O)(=O)N2CCCCC2)c1-c1cccc(N)c1 [Example 19-b]"
measurement = 0.38

[[record]]
molecule = "CCOc1cc(Cc2cnc(N)nc2N)cc(OCC(C)C)c1-c1ccc2c(c1)OCO2 [Example 10-c]"
measurement = 1.04

[[record]]
molecule = "CCOc1cc(Cc2cnc(N)nc2N)cc(OCC)c1-c1ccc(CO)s1 [Example 02-ab]"
measurement = 1.58

[[record]]
molecule = "CCOc1cc(Cc2cnc(N)nc2N)cc(OS(=O)(=O)CC2CC2)c1-c1ccc(N)c(F)c1 [Example 38-b]"
measurement = 0.81

[[record]]
molecule = "CCOc1cc(Cc2cnc(N)nc2N)cc(OS(=O)(=O)C2CCOCC2)c1-c1ccc(N)c(F)c1 [Example 41-b]"
measurement = 0.79

[[record]]
molecule = "CCOc1cc(Cc2cnc(N)nc2N)cc(OS(=O)(=O)N(C)C)c1-c1ccc(NC)cc1 [Example 26-a]"
measurement = 0.32

[[record]]
molecule = "CCOc1cc(Cc2cnc(N)nc2N)cc(OCC)c1-c1cccc(OC)c1 [Example 05-a]"
measurement = 1.66


###

In this section, each of the compounds is paired with its reported pIC50.
Molecular target: purified DHFR of strain 157/4696 of Staphylococcus aureus (Staphylococcus aureus, UniProt P13955)
Sequence (P13955 whole entry): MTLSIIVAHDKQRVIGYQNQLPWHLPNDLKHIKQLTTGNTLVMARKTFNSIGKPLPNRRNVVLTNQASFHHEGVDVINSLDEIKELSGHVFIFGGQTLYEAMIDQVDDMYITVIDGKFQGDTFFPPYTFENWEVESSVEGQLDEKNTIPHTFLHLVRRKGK
Assay: biochemical
pIC50: −log10 of the molar value.
Measured parameter: pIC50

[[record]]
compound = "CCOc1cc(Cc2cnc(N)nc2N)cc(OS(=O)(=O)N(C)C2CC2)c1-c1ccc(N)c(C)c1 [Example 27-c]"
measured_parameter = "pIC50"
measurement = 6.74

[[record]]
compound = "CCCOc1cc(Cc2cnc(N)nc2N)cc(OCC)c1-c1ccc(OC)cc1 [Example 09-e]"
measured_parameter = "pIC50"
measurement = 6.00

[[record]]
compound = "CCOc1cc(Cc2cnc(N)nc2N)cc(OC2CCCC2)c1-c1ccc(O)cc1 [Example 08-j]"
measured_parameter = "pIC50"
measurement = 5.80

[[record]]
compound = "CCOc1cc(Cc2cnc(N)nc2N)cc(OS(=O)(=O)C(C)C)c1-c1ccc(N)cc1 [Example 18]"
measured_parameter = "pIC50"
measurement = 7.41

[[record]]
compound = "CCOc1cc(Cc2cnc(N)nc2N)cc(OS(=O)(=O)N(C)C)c1-c1ccc(SC)cc1 [Example 43-a]"
measured_parameter = "pIC50"
measurement = 6.49


###

Tested on: Streptococcus pneumoniae 1/1
Test: MIC against Streptococcus pneumoniae 1/1
Format: cell-based
Details: Table 2; Streptococcus pneumoniae 1/1, trimethoprim- and penicillin-resistant, serotype 6; clinical isolate; read-out: MIC Sp1/1
In this section, each of the compounds is paired with its reported MIC.
Measured parameter: MIC (µg/mL)

[[record]]
compound = "CCOc1cc(Cc2cnc(N)nc2N)cc(OCC2CC2)c1-c1cccc(O)c1 [Example 54-]"
measured_parameter = "MIC"
reading_unit = "µg/mL"
measurement = 2

[[record]]
compound = "CCOc1cc(Cc2cnc(N)nc2N)cc(OS(=O)(=O)N2CCOCC2)c1-c1ccc(N)cc1 [Example 22-d]"
measured_parameter = "MIC"
reading_unit = "µg/mL"
measurement = 1

[[record]]
compound = "CCOc1cc(Cc2cnc(N)nc2N)cc(OCC)c1-c1ccc2cc(O)ccc2c1 [Example 02-f]"
measured_parameter = "MIC"
reading_unit = "µg/mL"
measurement = 4

[[record]]
compound = "CCCOc1cc(Cc2cnc(N)nc2N)cc(OCCC)c1-c1cccc(O)c1 [Example 52-]"
measured_parameter = "MIC"
reading_unit = "µg/mL"
measurement = 1

[[record]]
compound = "CCOc1cc(Cc2cnc(N)nc2N)cc(OC2CCCC2)c1-c1cccc(N)c1 [Example 07-d]"
measured_parameter = "MIC"
reading_unit = "µg/mL"
measurement = 1

[[record]]
compound = "CCOc1cc(Cc2cnc(N)nc2N)cc(OS(=O)(=O)CC2CCCO2)c1-c1cccc(N)c1 (centres unmarked) [Example 42-a]"
measured_parameter = "MIC"
reading_unit = "µg/mL"
measurement = 2

[[record]]
compound = "CCOc1cc(Cc2cnc(N)nc2N)cc(OS(=O)(=O)N(C)CC)c1-c1cccc(N)c1 [Example 19-f]"
measured_parameter = "MIC"
reading_unit = "µg/mL"
measurement = 1

[[record]]
compound = "CCOc1cc(Cc2cnc(N)nc2N)cc(OCC)c1-c1ccc(CN2CCOCC2)cc1 [Example 02-w]"
measured_parameter = "MIC"
reading_unit = "µg/mL"
measurement = 4

[[record]]
compound = "CCOc1cc(Cc2cnc(N)nc2N)cc(OCC)c1-c1ccc(N2CC(COC)OC2=O)cc1 (racemic) [Example 04-s]"
measured_parameter = "MIC"
reading_unit = "µg/mL"
measurement = 4

[[record]]
compound = "CCOc1cc(Cc2cnc(N)nc2N)cc(OCC)c1-c1ccc(N)c(F)c1 [Example 04-r]"
measured_parameter = "MIC"
reading_unit = "µg/mL"
measurement = 4

[[record]]
compound = "CCOc1cc(Cc2cnc(N)nc2N)cc(OS(=O)(=O)CC)c1-c1ccc(O)cc1 [Example 15-b]"
measured_parameter = "MIC"
reading_unit = "µg/mL"
measurement = 2

[[record]]
compound = "CCOc1cc(Cc2cnc(N)nc2N)cc(OC2CCCC2)c1-c1ccc2c(c1)OCO2 [Example 10-d]"
measured_parameter = "MIC"
reading_unit = "µg/mL"
measurement = 8

[[record]]
compound = "CCOc1cc(Cc2cnc(N)nc2N)cc(OCC)c1-c1ccc([S+](C)[O-])cc1 (racemic) [Example 02-j]"
measured_parameter = "MIC"
reading_unit = "µg/mL"
measurement = 4

[[record]]
compound = "CCOc1cc(Cc2cnc(N)nc2N)cc(OCCC2CC2)c1-c1ccc(O)cc1 [Example 08-l]"
measured_parameter = "MIC"
reading_unit = "µg/mL"
measurement = 8

[[record]]
compound = "CCOc1cc(Cc2cnc(N)nc2N)cc(OS(=O)(=O)N(C)C)c1-c1ccc(N)c(F)c1 [Example 28-a]"
measured_parameter = "MIC"
reading_unit = "µg/mL"
measurement = 1

[[record]]
compound = "CCOc1cc(Cc2cnc(N)nc2N)cc(OS(C)(=O)=O)c1-c1ccc(O)cc1 [Example 15-a]"
measured_parameter = "MIC"
reading_unit = "µg/mL"
measurement = 4

[[record]]
compound = "CCOc1cc(Cc2cnc(N)nc2N)cc(OCC)c1-c1ccc2[nH]ccc2c1 [Example 02-d]"
measured_parameter = "MIC"
reading_unit = "µg/mL"
measurement = 1


###

Test system: Staphylococcus aureus 101
Assay: MIC against Staphylococcus aureus 101
Assay type: cell-based
Settings: Table 2; Staphylococcus aureus 101, MRSA- and trimethoprim-resistant; clinical isolate; read-out: MIC Sa101
Measured parameter: MIC (µg/mL)

[[record]]
compound = "CCOc1cc(Cc2cnc(N)nc2N)cc(OS(=O)(=O)CC(C)C)c1-c1ccc(O)cc1 [Example 15-f]"
measurement = 4

[[record]]
compound = "CCCS(=O)(=O)Oc1cc(Cc2cnc(N)nc2N)cc(OCC)c1-c1ccc(O)cc1 [Example 15-d]"
measurement = 2

[[record]]
compound = "CCOc1cc(Cc2cnc(N)nc2N)cc(OCC)c1-c1cccc(C=O)c1 [Example 04-u]"
measurement = 8

[[record]]
compound = "CCOc1cc(Cc2cnc(N)nc2N)cc(OS(=O)(=O)N(C)C2CC2)c1-c1ccc(NC)cc1 [Example 26-d]"
measurement = 1


###

Molecular target: purified DHFR of strain Sp1/1 of Streptococcus pneumoniae (Streptococcus pneumoniae serotype 4)
Format: biochemical
Settings: Table 2; IC50 against purified DHFR of strain Sp1/1
In this section, each of the molecules is paired with its reported IC50.
Measured parameter: IC50

[[record]]
molecule = "CCOc1cc(Cc2cnc(N)nc2N)cc(OS(=O)(=O)CC(C)C)c1-c1ccc(OCCOC)cc1"
measured_parameter = "IC50"
measurement = "1.8 nM"

[[record]]
molecule = "CCOc1cc(Cc2cnc(N)nc2N)cc(OS(=O)(=O)CC(C)(C)OC)c1-c1cccc(N)c1"
measured_parameter = "IC50"
measurement = "4.2 nM"

[[record]]
molecule = "CCOc1cc(Cc2cnc(N)nc2N)cc(OS(=O)(=O)N(C)C)c1-c1ccc(OC)cc1"
measured_parameter = "IC50"
measurement = "52 nM"

[[record]]
molecule = "CCOc1cc(Cc2cnc(N)nc2N)cc(OS(C)(=O)=O)c1-c1ccc(O)cc1"
measured_parameter = "IC50"
measurement = "32 nM"

